Values from patent US5219867A

System: human blood platelets
Experiment: In vitro inhibition of ADP-induced human platelet aggregation (platelet-rich plasma, aggregometer)
Assay type: cell-based
Conditions: Homo sapiens, Platelet, read-out: Ia50 (compound concentrations affecting 50% inhibition of aggregation) ± S.E., Table II; ADP-induced; n = 5 for (0)I and 6 for all others
Method: Procedure for Determining In Vitro Platelet Aggregation-Inhibitory Activity. Adenosine diphosphate (ADP) was used to induce platelet aggregation and was utilized as the sodium salt. A 10 mM stock solution was prepared fresh before each use in modified Tyrode's buffer and working dilutions were prepared with modified Tyrode's buffer immediately prior to use. The buffer contained NaCl (137.00 mM), KCl (2.70 mM), NaHCO3 (11.90 mM), NaH2 PO4 H2 O (0.36 mM) and glucose (5.60 mM) in redistilled water. […]
Counter-ions that a name gives are not always drawn.
recorded_endpoint: IC50 (µM)
Give bare numbers, in µM.

molecule="CCN(CC)C(=O)C1CCCN(Cc2ccc(CN3CCCC(C(=O)N(CC)CC)C3)cc2)C1 (racemic) [Compound I, dihydrobromide]" number=44.5

# per-item lookup of IC50; items listed below
1. CN(C)CCCN1c2ccccc2Sc2ccc(Cl)cc21 [Chlorpromazine, reference compound]
2. CCN(CC)C(=O)C1CCCN(Cc2ccc(CN3CCCC(C(=O)N(CC)CC)C3)cc2)C1 (single isomer, unassigned) [IA]

Result:
1. 156
2. 233

Request: May I ask what IC50 has been recorded for CCN(CC)C(=O)[C@@H]1CCCN(Cc2ccc(CN3CCC[C@H](C(=O)N(CC)CC)C3)cc2)C1 ?
Result: 41.4
